- Method Summary: method code SF, from DOI: 10.1002/jps.2600650919, PMID: 966149
- Condition Context: pH 7.4
Measured Parameter: logD

The following molecules have reported results that may help.
# Molecule, Measured Parameter, Val
records = [
    ("CC12CCC(=O)C=C1CCC1C3CCC4(CCC(=O)O4)C3(C)CC(O)C12F (stereo not given)", "logD", 2.4),
    ("CC(=O)SC1CC2=CC(=O)CCC2(C)C2CCC3(C)C(CCC34CCC(=O)O4)C12 (stereo not given)", "logD", 2.78),
    ("CC12CCC(=O)C=C1C1CC1C1C2CCC2(C)C1CCC21CCC(=O)O1 (stereo not given)", "logD", 3.08),
    ("CCOC(=O)C1CC2=CC(=O)CCC2(C)C2CCC3(C)C(C4CCC(=O)O4)CCC3C12 (stereo not given)", "logD", 2.54),
    ("CC12CCC(=O)C=C1CC(C#N)C1C2CCC2(C)C1CCC21CCC(=O)O1 (stereo not given)", "logD", 1.67),
]

P = COC(=O)C1CC2=CC(=O)CCC2(C)C2CCC3(C)C(CCC34CCC(=O)O4)C12 (stereo not given)
Q = CC12CCC(=O)C=C1C1(CC1)CC1C2CCC2(C)C1CCC21CCC(=O)O1 (stereo not given)
Exercise: // which entry reports the smaller logD, P or Q ? The response must carry the label of the picked entry.
Solution: P
(P: 2.18, Q: 3.15)

P = CC(C)OC(=O)C1CC2=CC(=O)CCC2(C)C2CCC3(C)C(C4CCC(=O)O4)CCC3C12 (stereo not given)
Q = CC12CCC(=O)C=C1CCC1C3CCC4(CCC(=O)O4)C3(C)CC3OC312 (stereo not given)
Exercise: // which entry reports the smaller logD, P or Q ? The response must carry the label of the picked entry.
Solution: Q
(Q: 1.96, P: 2.82)
